System: Math1 enhancer and minimal promoter Luciferase reporter in HEK cells
Test: Math1 Luciferase reporter assay in HEK cells
Format: cell-based, human
Conditions: Homo sapiens, HEK293; read-out: Maximum (Fold DMSO)
Mark each entry 1 (yes) if its maximal fold induction sits below 2, and 0 (no) for all others.

Reference set, count: 4
| COMPOUND | GROUP |
| --- | --- |
| Cc1ccccc1-c1nnc(-c2ccccc2)o1 | 1 (yes) |
| COc1ccc(OCC(=O)Nc2nccs2)cc1 | 1 (yes) |
| CC(=O)c1sc(-c2ccc(C(C)(C)C)cc2)cc1N | 0 (no) |
| COc1ccc(C2=NN3C(C2)c2cccc(OC)c2OC32CCCCC2)cc1 (stereo not drawn) | 0 (no) |

A record lists Cc1cc(NC(=O)c2ccc3c(c2)OCO3)no1 . Is its maximal fold induction below 2?
1 (yes)

A record lists O=C(NCCSc1ccccc1)c1cncc(Br)c1 . Is its maximal fold induction below 2?
0 (no)

A record lists O=C(NNC(=S)Nc1ccc(F)cc1)c1ccccc1Cl . Is its maximal fold induction below 2?
1 (yes)

A record lists O=c1ccc2ccc(OCc3ccc(F)cc3)cc2o1 . Is its maximal fold induction below 2?
1 (yes)

FYI, the data here is from patent US11160808B2.
